- Measurement description: qHTS Screen for Compounds that Selectively Target Cancer Cells with p53 Mutations: Cytotoxicity of p53ts Cells at the Permissive Temperature; further: nearly all actives have a fitted effect of over 55% in size
- Run parameters: H1299-p53A138V at 32C, ATP luminescence viability, 24 h; series mostly up to 46.1 µM
Among all 130,000 compounds or so, about 1,200 (0.92%) were called active. Inconclusive results (about 3%) are left out. The call rests on the fitted dose curve; in most records, active means well fitted cell-killing curve with a large enough effect; inconclusive means small, poorly fitted or top-dose-only effect; inactive means no such curve, though single readings can be large or run the other way. What follows is part of a selection rich in actives, with near analogues and random picks from the rest.
Classes used: 1.0 = active, 0.0 = inactive

# Compound, Answer label
rows = [
    ("COc1ccc2cc(-c3nc(Cl)c4c5c(sc4n3)CC(C)CC5)c(=O)oc2c1 (configuration not stated)", 0.0),
    ("COc1ccc(C)cc1N(C)C(=O)c1c(C)oc2ncnc(N3CCOCC3)c12", 0.0),
    ("O=C(Cn1c(=O)nc(-c2ccccc2)c2cc(Cl)ccc21)NCc1ccc(Cl)cc1", 1.0),
    ("COc1ccc(-c2nc(-c3ccccc3)no2)c(OC)c1", 1.0),
    ("CCNC(=O)c1cc2n(n1)CCCN(Cc1ccc(C)cc1)C2=O", 0.0),
    ("CCc1ccc(NC(=O)CN2C(=O)C(c3ccccc3)=NC23CCCCCC3)cc1", 0.0),
    ("Cc1nc2nc(SCC(=O)NC3CCC(C)CC3)nn2c(C)c1Cc1ccccc1Cl (configuration not stated)", 0.0),
    ("CC(C)c1ccc(NC(=O)c2ccc3c(O)c(S(=O)(=O)c4ccccc4)c(=O)[nH]c3c2)cc1", 1.0),
    ("Cc1c(C(=O)NCc2ccccc2Br)oc2ccc3c(c12)C(=O)CC(C)(C)O3", 1.0),
    ("O=c1oc2cc(O)ccc2cc1-c1ccc(F)cc1", 0.0),
    ("Cc1c(CNC(C)c2ccccc2)c(C(=O)O)c(C)n1Cc1c(F)cccc1Cl (configuration not stated)", 0.0),
    ("CCc1ccc2oc(-c3ccc(C)c(NC(=O)/C=C/c4ccco4)c3)nc2c1", 0.0),
    ("c1ccc(-c2noc(-c3cccs3)n2)nc1", 1.0),
    ("CCC1(C)CC(=O)c2c(ccc3oc(C(=O)Nc4ccc(C(C)=O)cc4)c(C)c23)O1 (configuration not stated)", 0.0),
    ("C=CC(=O)c1ccc2ccccc2c1", 1.0),
    ("COc1ccc(CNC(=O)CC2Oc3ccc(C)cc3NC2=O)cc1 (configuration not stated)", 0.0),
    ("COc1ccc(C2CC(=O)N(Cc3ccccc3C)c3c2c(C)nn3-c2nc(C)cc(C)n2)c(OC)c1 (configuration not stated)", 0.0),
    ("COc1ccc(-c2cc(-c3nc(-c4cc(OC)c(OC)c(OC)c4)no3)[nH]n2)c(OC)c1", 0.0),
    ("COc1ccc(-c2noc(CSc3nnc(-c4ccccc4)n3-c3ccc(F)cc3)n2)c(OC)c1", 0.0),
    ("CCOC(=O)c1cccc(NS(=O)(=O)c2cc(-c3cnc(C)o3)ccc2OC)c1", 0.0),
    ("CC1(C)CC(=O)c2cc(OCC(=O)NCC3CCCO3)ccc2O1 (configuration not stated)", 0.0),
    ("CCc1ccccc1NC(=O)Cc1ccc(NC(=O)N2CCCCc3ccccc32)cc1", 0.0),
]
